The values you see were collected from ChEMBL document CHEMBL1697781.

- System: Hepatotoxicity
- assay.explanation: FDA HLAED, gamma-glutamyl transferase (GGT) increase
- reported.conditions: human
measurement.label: GGT Increase - Index Value
Please reply with the number alone, leaving off any unit.

Sample records with GGT Increase - Index Value:
compound	GGT Increase - Index Value
NCCNCCNCCN	0
CC(C)NCC(O)COc1ccc(CCOCC2CC2)cc1 (stereo not drawn)	0
CO/N=C(\C(=O)N[C@@H]1C(=O)N2C(C(=O)OC(C)OC(C)=O)=C(COC(N)=O)CS[C@H]12)c1ccco1 (stereo partly drawn)	0
CO/N=C(\C(=O)N[C@@H]1C(=O)N2C(C(=O)O)=C(CSc3nc(=O)c(=O)[nH]n3C)CS[C@H]12)c1csc(N)n1	2.6

Turning to the following compound.
So, CC(=O)O[C@H]1C[C@@H]2CC[C@@H]3[C@H](CC[C@@]4(C)[C@H]3C[C@H]([N+]3(C)CCCCC3)[C@@H]4OC(C)=O)[C@@]2(C)C[C@@H]1N1CCCCC1.[Br-] [VECURONIUM BROMIDE] ? Its GGT Increase - Index Value was 0

====

- Test system: Hepatotoxicity
- assay.explanation: FDA HLAED, liver enzyme composite activity
- reported.conditions: human
measurement.label: Composite Activity - Active
Please reply with the number alone, leaving off any unit.

compound	experimental.value
OCCN1CCN(CCCN2c3ccccc3Sc3ccc(C(F)(F)F)cc32)CC1 [FLUPHENAZINE]	0

So, N=C(N)NCC1COC2(CCCCC2)O1 (centres undefined) ? Its Composite Activity - Active was 0

So, COc1cc2nc(N3CCN(C(=O)C4CCCO4)CC3)nc(N)c2cc1OC (centres undefined) [TERAZOSIN] ? Its Composite Activity - Active was 0

So, CCN[C@@H](C)Cc1cccc(C(F)(F)F)c1 [DEXFENFLURAMINE] ? Its Composite Activity - Active was 0

====

- Tested on: Hepatotoxicity
- assay.explanation: FDA HLAED, lactate dehydrogenase (LDH) increase
- reported.conditions: human
measurement.label: LDH Increase - Index Value
Please reply with the number alone, leaving off any unit.

Sample records with LDH Increase - Index Value:
compound	measurement.label	experimental.value
Nc1nc2c(ncn2COCCO)c(=O)[nH]1 [ACYCLOVIR]	LDH Increase - Index Value	0.1
CN(C)C(=N)N=C(N)N [METFORMIN]	LDH Increase - Index Value	0
C[C@@H](O)[C@H]1C(=O)N2C(C(=O)O)=C(S[C@@H]3CN[C@H](C(=O)N(C)C)C3)[C@H](C)[C@H]12 [MEROPENEM]	LDH Increase - Index Value	33.8
NCC1(CC(=O)O)CCCCC1 [GABAPENTIN]	LDH Increase - Index Value	0.4
CC(=O)[C@]1(O)Cc2c(O)c3c(c(O)c2[C@@H](O[C@H]2C[C@H](N)[C@H](O)[C@H](C)O2)C1)C(=O)c1ccccc1C3=O [IDARUBICIN]	LDH Increase - Index Value	0

So, CCOC(=O)c1ncn2c1CN(C)C(=O)c1cc(F)ccc1-2 [FLUMAZENIL] ? Its LDH Increase - Index Value was 0

So, C[C@]12CC[C@H]3[C@@H](CCC4=CC(=O)CC[C@@]43C)[C@@H]1CC[C@@H]2OC(=O)Cc1ccccc1 [TESTOSTERONE PHENYLACETATE] ? Its LDH Increase - Index Value was 2.4

So, CC(=O)CCCCn1c(=O)c2c(ncn2C)n(C)c1=O [PENTOXIFYLLINE] ? Its LDH Increase - Index Value was 0.6

So, Nc1cc(-c2ccncc2)c[nH]c1=O [INAMRINONE] ? Its LDH Increase - Index Value was 2.2
